Assay system: T1, Seb1-CID(1-152) (S. pombe, UniProt Q9UTE3 1-152)
T1 construct: The full-length parent construct in pET41a(+) has a C-terminal His8 tag; also called CID WT; source: E. coli Rosetta, purified (Ni-NTA, size-exclusion chromatography)
T1 sequence (looked up): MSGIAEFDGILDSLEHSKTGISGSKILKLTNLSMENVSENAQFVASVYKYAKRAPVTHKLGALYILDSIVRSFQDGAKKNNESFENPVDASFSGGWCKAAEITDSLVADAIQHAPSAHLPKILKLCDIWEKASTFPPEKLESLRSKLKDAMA
Experiment notes: fluorescence polarisation; fluorescence anisotropy; Seb1-CID(1-152) titrated against 75 nM N-terminally FAM-tagged two-repeat CTD peptide; 25 mM HEPES pH 7.3, 200 mM NaCl, 1 mM EDTA; 25 °C
Assay context: both partners purified
pKd: −log10 of the molar value. Where no end group is shown, it is not given here. FAM = 5'-fluorescein amidite
Reported property: pKd

Request: // query pKd value for entry {FAM}-YSPTSPSYSPTSPS [FAM-tagged two-repeat non-phosphorylated CTD peptide]
Response: < 3.00
